Target or system Cytochrome P450 3A4 (Homo sapiens, UniProt P08684); metric pIC50; compiled from varied reports.
pIC50: −log10 of the molar value.

Here's what some known entries look like.
COCC(F)(F)[C@H]1OC(N)=N[C@](C)(c2cc(NC(=O)c3cnc(OC)cn3)ccc2F)[C@H]1F ... ≤ 5.00
CC(F)(F)COc1ccc(C(=O)N2CCC(F)(F)/C(=C\C(=O)NCCO)c3ccccc32)c(C(F)(F)F)c1 ... < 4.30
CN(Cc1ccco1)C(=O)N[C@@H](CCN1CCOCC1)C(=O)N[C@H](CC[C@H](Cc1ccccc1)NC(=O)OCc1cncs1)Cc1ccccc1 ... 6.54
O=C(Nc1ccc(C(F)(F)F)cc1)c1cccnc1NCc1ccnc2[nH]ccc12 ... < 4.70
Cc1cc(-c2ccc([C@H](C)N3CC[C@](CC(C)(C)O)(c4ccc(F)cc4)OC3=O)cc2)ccn1 ... 5.30
CN1CCN(Cc2ccc(-c3ccc(C[C@@H](C#N)NC(=O)C4(N)CCOCC4)cc3)cc2)CC1 ... < 4.00

Req: For the compound shown here, `CC(=O)N1CCC(n2cc(Nc3ncc(C)c(-c4ccc(C(=O)NCC#N)cc4)n3)cn2)CC1` , give the reported pIC50.
Resp: < 4.30
